Tested on: NCI-H2170
Protocol description: relative viability (nuclei count vs DMSO), 5 days (fraction); higher = more cells survive
Condition: first compound 0.3162 µM
# note: exactly 0.6 is not below, so it is No; use Yes for relative viability strictly under it

# Compound, Discrete label
measured = [
    ("CC(C)Oc1cc(Nc2nc(N[C@@H](C)c3ccc(F)cn3)ncc2Cl)n[nH]1 [AZ23] + Nc1nc2[nH]cc(CCc3ccc(C(=O)N[C@@H](CCC(=O)O)C(=O)O)cc3)c2c(=O)[nH]1 [Pemetrexed] (partner 0.2 µM)", "Yes"),
    ("CC(C)Oc1cc(Nc2nc(N[C@@H](C)c3ccc(F)cn3)ncc2Cl)n[nH]1 [AZ23] + NC(=O)Nc1cc(-c2cccc(F)c2)sc1C(=O)N[C@H]1CCCNC1 [AZD7762] (partner 0.2 µM)", "No"),
    ("CC(C)Oc1cc(Nc2nc(N[C@@H](C)c3ccc(F)cn3)ncc2Cl)n[nH]1 [AZ23] + O=C(CCCCCCC(=O)Nc1ccccc1)NO [Vorinostat] (partner 1 µM)", "No"),
    ("CC(C)Oc1cc(Nc2nc(N[C@@H](C)c3ccc(F)cn3)ncc2Cl)n[nH]1 [AZ23] + CC(=O)c1c(C)c2cnc(Nc3ccc(N4CCNCC4)cn3)nc2n(C2CCCC2)c1=O [Palbociclib] (partner 0.5 µM)", "Yes"),
    ("CC(C)Oc1cc(Nc2nc(N[C@@H](C)c3ccc(F)cn3)ncc2Cl)n[nH]1 [AZ23] + COc1cc2c(Oc3ccc(NC(=O)C4(C(=O)Nc5ccc(F)cc5)CC4)cc3F)ccnc2cc1OCCCN1CCOCC1 [Foretinib] (partner 0.25 µM)", "No"),
    ("CC(C)Oc1cc(Nc2nc(N[C@@H](C)c3ccc(F)cn3)ncc2Cl)n[nH]1 [AZ23] + O=C(c1cc(Cc2n[nH]c(=O)c3ccccc23)ccc1F)N1CCN(C(=O)C2CC2)CC1 [Olaparib] (partner 8 µM)", "No"),
    ("CC(C)Oc1cc(Nc2nc(N[C@@H](C)c3ccc(F)cn3)ncc2Cl)n[nH]1 [AZ23] + Cc1cc(Nc2cc(N3CCN(C)CC3)nc(Sc3ccc(NC(=O)C4CC4)cc3)n2)n[nH]1 [Tozasertib] (partner 0.1 µM)", "No"),
    ("CC(C)Oc1cc(Nc2nc(N[C@@H](C)c3ccc(F)cn3)ncc2Cl)n[nH]1 [AZ23] + Cc1nc(NC(=O)N2CCC[C@H]2C(N)=O)sc1-c1ccnc(C(C)(C)C(F)(F)F)c1 [Alpelisib] (partner 2 µM)", "No"),
    ("CC(C)Oc1cc(Nc2nc(N[C@@H](C)c3ccc(F)cn3)ncc2Cl)n[nH]1 [AZ23] + COc1cccc2cc(-c3nc([C@H]4CC[C@H](C(=O)O)CC4)n4ncnc(N)c34)[nH]c12 [OSI-027] (partner 0.5 µM)", "No"),
]

---

Test system: NCI-H460
Protocol description: relative viability (nuclei count vs DMSO), 5 days (fraction); higher = more cells survive
Condition: first compound 0.04 µM
Mark true for relative viability under 0.7, false if at or over.

# Compound, Discrete label
records = [
    ("Clc1ccc(Nc2nnc(Cc3ccncc3)c3ccccc23)cc1 [Vatalanib] + Cc1nc(NC(=O)N2CCC[C@H]2C(N)=O)sc1-c1ccnc(C(C)(C)C(F)(F)F)c1 [Alpelisib] (partner 2 µM)", "true"),
    ("C[C@@H]1CN(CC(=O)Nc2ccc3c(c2)Cc2cccc(-c4cc(=O)cc(N5CCOCC5)o4)c2S3)C[C@H](C)O1 + CC(=O)c1c(C)c2cnc(Nc3ccc(N4CCNCC4)cn3)nc2n(C2CCCC2)c1=O [Palbociclib] (partner 0.5 µM)", "true"),
    ("C[C@@H]1CN(CC(=O)Nc2ccc3c(c2)Cc2cccc(-c4cc(=O)cc(N5CCOCC5)o4)c2S3)C[C@H](C)O1 + Cc1cc(Nc2cc(N3CCN(C)CC3)nc(Sc3ccc(NC(=O)C4CC4)cc3)n2)n[nH]1 [Tozasertib] (partner 0.1 µM)", "true"),
    ("C[C@@H]1CN(CC(=O)Nc2ccc3c(c2)Cc2cccc(-c4cc(=O)cc(N5CCOCC5)o4)c2S3)C[C@H](C)O1 + Nc1nc2[nH]cc(CCc3ccc(C(=O)N[C@@H](CCC(=O)O)C(=O)O)cc3)c2c(=O)[nH]1 [Pemetrexed] (partner 0.2 µM)", "true"),
    ("COc1cc(N2CCC(C(N)=O)CC2)ccc1Nc1nc(N)c(Cl)c(Nc2ccccc2S(=O)(=O)C(C)C)n1 [HG-5-88-01] + CC(=O)c1c(C)c2cnc(Nc3ccc(N4CCNCC4)cn3)nc2n(C2CCCC2)c1=O [Palbociclib] (partner 0.5 µM)", "true"),
    ("C[C@@H]1CN(CC(=O)Nc2ccc3c(c2)Cc2cccc(-c4cc(=O)cc(N5CCOCC5)o4)c2S3)C[C@H](C)O1 + C[C@@H](Oc1cc(-c2cnn(C3CCNCC3)c2)cnc1N)c1c(Cl)ccc(F)c1Cl [Crizotinib] (partner 1 µM)", "false"),
    ("C[C@@H]1CN(CC(=O)Nc2ccc3c(c2)Cc2cccc(-c4cc(=O)cc(N5CCOCC5)o4)c2S3)C[C@H](C)O1 + Nc1ncn([C@H]2C[C@H](O)[C@@H](CO)O2)c(=O)n1 [Decitabine] (partner 2 µM)", "true"),
    ("COc1cc(N2CCC(C(N)=O)CC2)ccc1Nc1nc(N)c(Cl)c(Nc2ccccc2S(=O)(=O)C(C)C)n1 [HG-5-88-01] + O=C(c1cc(Cc2n[nH]c(=O)c3ccccc23)ccc1F)N1CCN(C(=O)C2CC2)CC1 [Olaparib] (partner 8 µM)", "true"),
    ("Clc1ccc(Nc2nnc(Cc3ccncc3)c3ccccc23)cc1 [Vatalanib] + CS(=O)(=O)CCNCc1ccc(-c2ccc3ncnc(Nc4ccc(OCc5cccc(F)c5)c(Cl)c4)c3c2)o1 [Lapatinib] (partner 2 µM)", "false"),
    ("COc1cc(N2CCC(C(N)=O)CC2)ccc1Nc1nc(N)c(Cl)c(Nc2ccccc2S(=O)(=O)C(C)C)n1 [HG-5-88-01] + CS(=O)(=O)CCNCc1ccc(-c2ccc3ncnc(Nc4ccc(OCc5cccc(F)c5)c(Cl)c4)c3c2)o1 [Lapatinib] (partner 2 µM)", "false"),
    ("Clc1ccc(Nc2nnc(Cc3ccncc3)c3ccccc23)cc1 [Vatalanib] + NC(=O)Nc1cc(-c2cccc(F)c2)sc1C(=O)N[C@H]1CCCNC1 [AZD7762] (partner 0.2 µM)", "true"),
    ("C[C@@H]1CN(CC(=O)Nc2ccc3c(c2)Cc2cccc(-c4cc(=O)cc(N5CCOCC5)o4)c2S3)C[C@H](C)O1 + COc1cccc2cc(-c3nc([C@H]4CC[C@H](C(=O)O)CC4)n4ncnc(N)c34)[nH]c12 [OSI-027] (partner 0.5 µM)", "true"),
    ("COc1cc(N2CCC(C(N)=O)CC2)ccc1Nc1nc(N)c(Cl)c(Nc2ccccc2S(=O)(=O)C(C)C)n1 [HG-5-88-01] + CC(C)C[C@H](NC(=O)[C@H](Cc1ccccc1)NC(=O)c1cnccn1)B(O)O [Bortezomib] (partner 0.002 µM)", "false"),
    ("COc1cc(N2CCC(C(N)=O)CC2)ccc1Nc1nc(N)c(Cl)c(Nc2ccccc2S(=O)(=O)C(C)C)n1 [HG-5-88-01] + Cc1cc(Nc2cc(N3CCN(C)CC3)nc(Sc3ccc(NC(=O)C4CC4)cc3)n2)n[nH]1 [Tozasertib] (partner 0.1 µM)", "false"),
]
